# methodDescription: in vivo
# conditionDetails: female, BALB/c, mouse, brain (remaining tissue after removal of striatum), inhaled or intranasal, 2 ug

{"compound": "CC[C@H](C)[C@H](NC(=O)[C@H](CCCNC(=N)N)NC(=O)[C@H](CCCNC(=N)N)NC(=O)[C@H](CC(C)C)NC(=O)[C@H](Cc1ccccc1)NC(=O)CNC(=O)CNC(=O)[C@@H](C)Cc1c(C)cc(O)cc1C)C(=O)N[C@@H](CCCNC(=N)N)C(=O)N1CCC[C@H]1C(=O)N[C@@H](CCCCN)C(N)=O [Dynantin]", "tissue level at time at 20 min, ng/g": 560}

---

# methodDescription: in vivo
# conditionDetails: female, BALB/c, mouse, lung, inhaled or intranasal, 2 ug
property: tissue level at time at 20 min

{"compound": "CC[C@H](C)[C@H](NC(=O)[C@H](CCCNC(=N)N)NC(=O)[C@H](CCCNC(=N)N)NC(=O)[C@H](CC(C)C)NC(=O)[C@H](Cc1ccccc1)NC(=O)CNC(=O)CNC(=O)[C@@H](C)Cc1c(C)cc(O)cc1C)C(=O)N[C@@H](CCCNC(=N)N)C(=O)N1CCC[C@H]1C(=O)N[C@@H](CCCCN)C(N)=O [Dynantin]", "property": "tissue level at time at 20 min", "value": "560 ng/g"}
